tested on: Abutilon theophrasti (ABUTH); assay: Herbicidal post-emergence action, 320 g/ha, ABUTH; format: in vivo; conditions: visual grading after ca. 3 weeks
assay endpoint: herbicidal effect ABUTH (%)

>>> df
                                   compound  readout_number
0  Cc1nn(C)c(=O)c(Oc2cc(F)ccc2C2CC2)c1O [Example I-046]             100
1  Cc1nn(C)c(=O)c(Oc2ccccc2OC(F)F)c1O [Example I-082]              90
2  Cc1nn(C)c(=O)c(Oc2cc(Cl)ccc2C2CC2)c1O [Example I-071]             100
3  CCOC(=O)Oc1c(C)nn(C)c(=O)c1Oc1cc(Cl)ccc1C1CC1 [Example I-070]             100
4  CCOC(=O)Oc1c(C)nn(C)c(=O)c1Oc1ccccc1C1CC1 [Example I-012]             100

These entries and their values trace back to patent US20240239755A1.
